- Tested on: serotonin uptake, synaptosomes of cerebral cortex
- experiment-description: In vitro uptake of [3H]serotonin by cerebral cortex synaptosomes
- Type: biochemical, male Sprague-Dawley rats
readout: IC50 (µM)
Give just the number in µM; leave the unit off.

Sample CNCCC(Oc1ccccc1C)c1ccccc1.Cl (single isomer, unassigned; (-)) [compound of this invention, hydrochloride] — what was its IC50? 1
